- System: A549
- EXPERIMENT: NCI tumour cell line growth inhibition, 48 h
The source made the active and inactive calls. Rule as the data show it: active = GI50 up to about 1.1 µM and inactive = higher.
Items are presented alongside their recorded GI50.

{"columns": ["COMPOUND", "SUBJECT_OF_TEST", "GI50"],
 "data": [
  ["Cc1ccc(S(=O)(=O)N[C@@H](Cc2ccccc2)C(=O)CCl)cc1", "A549", "15.7 µM (inactive)"],
  ["CC(=O)OC1CCn2c1nc1c2C(=O)C=C(N2CC2)C1=O (stereo not given)", "A549", "1.41 µM (inactive)"],
  ["O=P(Oc1ccc2ccccc2c1)(N1CC1)N1CC1", "A549", "5.62 µM (inactive)"],
  ["O=C(O)C(=Cc1ccnc2ccccc12)C(=O)O", "A549", "> 100 µM (inactive)"],
  ["CCOC1=C2N=C(Cc3ccccc3F)N=C2C(=O)c2ccccc21", "A549", "> 100 µM (inactive)"],
  ["CC1(C)[C@H]2Cc3cc(-c4cc5c(cn4)[C@@H]4C[C@H]([C@@H]5[C@@H]5c6cc(-c7cc8c(cn7)[C@@H]7C[C@H](C8)C7(C)C)ncc6[C@@H]6C[C@H]5C6(C)C)C4(C)C)ncc3[C@@H]1C2", "A549", "> 100 µM (inactive)"],
  ["O=C(O)CC(NC(=O)CP(=O)(O)O)C(=O)O (stereo not given)", "A549", "47.4 µM (inactive)"],
  ["Cc1ccc(/C=N/Nc2cnccn2)s1", "A549", "> 100 µM (inactive)"],
  ["CC(=O)Oc1ccc(C2COc3cc(OC(C)=O)c(OC(C)=O)cc3C2)cc1 (stereo not given)", "A549", "22.3 µM (inactive)"],
  ["N/C(=N\\NC(=O)c1nc2ccccc2s1)c1ccccn1", "A549", "3.19 µM (inactive)"],
  ["CCOC(=O)c1c(SCCN2CCOCC2)n(-c2ccccc2)c(=S)n(-c2ccccc2)c1=O", "A549", "> 100 µM (inactive)"],
  ["C=CCN1C(=O)/C(=C/c2ccc(OC)cc2)N=C1SC1OC(COC(C)=O)C(OC(C)=O)C(OC(C)=O)C1OC(C)=O (stereo not given)", "A549", "34.8 µM (inactive)"],
  ["CC(=O)OCC1OC(OC2CC3C(C)(C)C(O)CC[C@]3(C)C3CCC45CC4(CC[C@H]5C(C)CC(O)C4OC4(C)C)[C@]23C)C(O)C(O)C1O (stereo not given in full)", "A549", "10.6 µM (inactive)"],
  ["O=C1c2cc(Br)ccc2-c2ccc3c4ccc5c6c(ccc(c7ccc1c2c73)c64)C(=O)c1cc(Br)ccc1-5", "A549", "> 100 µM (inactive)"],
  ["Cc1ccc(S(=O)(=O)N/N=C/c2oc(-c3cccc([N+](=O)[O-])c3)c(-c3cccc([N+](=O)[O-])c3)c2[N+](=O)[O-])cc1", "A549", "> 100 µM (inactive)"],
  ["Nc1c(S(=O)(=O)O)cc(S(=O)(=O)O)c2ccc(/N=N/c3ccccc3)c(O)c12", "A549", "> 100 µM (inactive)"],
  ["NCCN1C(=O)c2cc(Cl)c(Cl)cc2C1(O)c1ccc(Cl)cc1 (stereo not given)", "A549", "2.09 µM (inactive)"],
  ["O=C(O)c1ccccc1C(=O)NCC1S(=O)(=O)OCCOS1(=O)=O", "A549", "> 100 µM (inactive)"],
  ["COc1ccc(C2=NN(C(C)=O)c3nc4ccccc4nc3O2)cc1", "A549", "40.6 µM (inactive)"],
  ["CCCC#CC(O)(C(=O)OC1CCN(C)CC1)C1CCCCC1 (stereo not given)", "A549", "> 100 µM (inactive)"]
]}

====

- System: IGROV-1
- EXPERIMENT: NCI tumour cell line growth inhibition, 48 h
Active and inactive are the calls of the source. No stated cut-off is given here; in the data, active = GI50 up to about 1.1 µM and inactive = higher.
Possible outcomes: 1.0 = active, 0.0 = inactive

{"columns": ["COMPOUND", "CATEGORY_LABEL"],
 "data": [
  ["O=C(O)c1cc(S(=O)(=O)N/N=C\\c2c3ccccc3[n+]([O-])c3ccccc23)ccc1O", 0.0],
  ["CSCSCC(CO)NC(=O)/C(C)=C\\c1c(C)[nH]c(=O)[nH]c1=O (stereo unspecified)", 0.0],
  ["CC(C)NC(=O)OCc1c(COC(=O)NC(C)C)c(-c2cc[n+](COC(=O)C(C)(C)C)cc2)n2c1CCC2", 0.0],
  ["CCN(CC)C(=O)CCCCCCCCC1CO1 (stereo unspecified)", 0.0],
  ["Cc1ccc(S(=O)(=O)OC2=C/C(=N\\c3onc(C)c3C)c3ccccc3C2=O)cc1", 0.0],
  ["C[C@]12CC[C@H]3[C@@H](CC=C4C[C@@H](O)CC[C@@]43C)[C@@H]1C/C(=C\\c1ccc([N+](=O)[O-])cc1)[C@@H]2O", 0.0],
  ["N#CC(NNC(=O)c1ccccc1O)c1ccccc1 (stereo unspecified)", 0.0],
  ["N#Cc1nc(-c2cccs2)oc1N", 0.0],
  ["O=S1(=O)c2ccccc2Oc2ccc(C(/C=N/O)=N/O)cc21", 0.0],
  ["N#C[BH2-][n+]1cn(C2CC(O)C(COP(=O)(O)OC3CC(n4cnc5c(=O)[nH]c(N)nc54)OC3CO)O2)c2nc(N)[nH]c(=O)c21 (stereo unspecified)", 0.0],
  ["CC(=O)OC1CCn2c1nc1c2C(=O)C=C(N2CC2)C1=O (stereo unspecified)", 1.0],
  ["C[C@]12CC[C@H](O)CC1=CC[C@@H]1C2CC[C@]2(C)Nc3c(cnn3-c3ccccc3)CC12 (stereo partly specified)", 0.0],
  ["O=C(Cn1nnc(-c2ccccc2)n1)N/N=C/c1cn(Cc2ccc(Cl)cc2Cl)c2ccccc12", 0.0],
  ["CC1CC2OC(=O)C(C)C2CC2(C)C(OC3OC(CO)C(O)C(O)C3O)OCCC12 (stereo unspecified)", 0.0],
  ["CCCCC1Cc2cc(OC)ccc2-c2nc3cc(OC)ccc3n21.CCCCC1Cc2cc(OC)ccc2-c2nc3ccc(OC)cc3n21 (stereo unspecified)", 0.0],
  ["CCCCCC#COC1CC(C)CC[C@@H]1C(C)C (stereo partly specified)", 0.0]
]}

====

- System: M14
- EXPERIMENT: NCI tumour cell line growth inhibition, 48 h
Calls of active or inactive are those of the source. Rule as the data show it: active = GI50 up to about 1.1 µM and inactive = higher.
QUANTITY: GI50

{"columns": ["COMPOUND", "QUANTITY", "ASSAY_VALUE"],
 "data": [
  ["O=C1C(Cl)=C(Cl)C(=O)N1c1ccc(F)cc1 [FLUOROIMIDE]", "GI50", "19.5 µM (inactive)"],
  ["CCCCC1Cc2cc(OC)ccc2-c2nc3cc(OC)ccc3n21.CCCCC1Cc2cc(OC)ccc2-c2nc3ccc(OC)cc3n21 (stereo not drawn)", "GI50", "15 µM (inactive)"],
  ["O=c1[nH]nc(Cc2ccccc2)n1/N=C/c1ccncc1", "GI50", "> 100 µM (inactive)"],
  ["Cn1cc(-c2n[nH]c(-c3ccc(Cl)cc3)nc2=O)c2ccccc21", "GI50", "3.18 µM (inactive)"],
  ["COc1ccc(/C=C2\\N=C(c3ccccc3)N(C3Nc4cc5c(cc4S3)NC(N3C(=O)/C(=C/c4ccc(OC)cc4)N=C3c3ccccc3)S5)C2=O)cc1 (stereo not drawn)", "GI50", "> 100 µM (inactive)"],
  ["CC(C)(C)N(Cc1ccc2c(c1)OCO2)C(=O)/C=C\\Sc1ccccc1", "GI50", "77.1 µM (inactive)"],
  ["C/C(=N\\NS(=O)(=O)c1ccc(C)cc1)C(CN1CCCCC1)C(c1ccccc1)c1c(O)c2ccccc2oc1=O (stereo not drawn)", "GI50", "> 100 µM (inactive)"],
  ["COc1cc(C2S/C(=C/c3ccccc3)C(=O)N2c2ccccn2)cc(OC)c1OC (stereo not drawn)", "GI50", "15.1 µM (inactive)"],
  ["COC(=O)c1ccc2c(c1)CC1(C2)Cc2cc3c(cc2C1)CCC3", "GI50", "> 100 µM (inactive)"],
  ["CCCCc1ccc(Nc2ncc3ncn(COCCO)c3n2)cc1", "GI50", "21.5 µM (inactive)"],
  ["CCc1ccc(Cc2ccc(CC)c(NC(=O)C(=O)Cc3nc4ccccc4nc3C)c2CC)c(CC)c1NC(=O)C(=O)Cc1nc2ccccc2nc1C", "GI50", "> 100 µM (inactive)"],
  ["COc1ccc(O[C@H](COCc2ccccc2)C[C@@H]2COC(C)(C)O2)cc1", "GI50", "> 100 µM (inactive)"],
  ["Cc1ccc2c3c1O[C@H]1c4[nH]c5ccccc5c4C[C@@]4(O)[C@@H](C2)N(C)CC[C@]314", "GI50", "16.2 µM (inactive)"],
  ["Oc1c(CN2CCCC2)ccc2cccnc12", "GI50", "15.7 µM (inactive)"],
  ["CC1(C)CC(=O)/C(=C/C2CCNC2=S)C(=O)N1 (stereo not drawn)", "GI50", "> 100 µM (inactive)"],
  ["Cc1nc2ccc(/N=N/N(C)C)cc2[nH]1", "GI50", "> 100 µM (inactive)"],
  ["CCCCCCCCCCCc1c(O)c(=O)c2c(oc3c(=O)c(CCCCCCCCCCC)c(O)c(=O)c3n2-c2ccc(N(C)C)cc2)c1=O", "GI50", "16.3 µM (inactive)"],
  ["O=C1CCCCC12CCC/C2=N\\O (stereo not drawn)", "GI50", "> 100 µM (inactive)"],
  ["CC(=O)OC1CCn2c1nc1c2C(=O)C=C(N2CC2)C1=O (stereo not drawn)", "GI50", "0.0519 µM (active)"],
  ["O=C(O)C1C2C=CC(O2)C1C(=O)Nc1ncccn1 (stereo not drawn)", "GI50", "> 100 µM (inactive)"],
  ["O=C(O)CCNCCCCNCCC(=O)O", "GI50", "> 100 µM (inactive)"],
  ["COC(=O)C12Oc3ccc(-c4ccc5c(c4O)C(O)=C4C(=O)CC(C)C(O)C4(C(=O)OC)O5)c(O)c3C(O)=C1C(=O)CC(C)C2O (stereo not drawn)", "GI50", "0.104 µM (active)"],
  ["O=C(O)C(=Cc1ccnc2ccccc12)C(=O)O", "GI50", "> 100 µM (inactive)"],
  ["CS(=O)(=O)Nc1ccc2c(c1)oc(=O)c1ccccc12", "GI50", "> 100 µM (inactive)"],
  ["CCC(=O)Nc1ccc(/N=C/c2cccc(Oc3ccccc3)c2)cc1", "GI50", "46.6 µM (inactive)"],
  ["O=C1[C@H]2ON(c3ccccc3)C(c3cccc([N+](=O)[O-])c3)[C@H]2C(=O)N1c1ccc(Cc2ccc(N3C(=O)[C@@H]4ON(c5ccccc5)C(c5cccc([N+](=O)[O-])c5)[C@@H]4C3=O)cc2)cc1 (stereo partly drawn)", "GI50", "21.6 µM (inactive)"],
  ["c1ccc2cc(CNCCOCCOCCNCc3ccc4ccccc4c3)ccc2c1", "GI50", "1.95 µM (inactive)"],
  ["O=C1NC2OCC(O)C(O)C2O1 (stereo not drawn)", "GI50", "> 100 µM (inactive)"],
  ["CC1=N/C(=C\\c2ccc([N+](=O)[O-])cc2)C(=O)O1", "GI50", "> 100 µM (inactive)"],
  ["O=C(/C=C\\c1cccc2ccccc12)c1cccc2ccccc12", "GI50", "12.2 µM (inactive)"],
  ["C[C@]12CC[C@H]3[C@@H](CCC4=CC(=O)C=C[C@@]43O)[C@@H]1CCC2=O", "GI50", "> 100 µM (inactive)"],
  ["Cn1c2ccccc2c(=NNc2ccc(S(=O)(=O)N=C(N)N)cc2)c2ccccc21", "GI50", "16.3 µM (inactive)"],
  ["O=c1c2cc(S(=O)(=O)Nc3c(Cl)cccc3Cl)ccc2ncn1NS(=O)(=O)c1ccc2ccccc2c1", "GI50", "> 62.5 µM (inactive)"]
]}
